Every entry's value here was drawn from patent US20260049071A1.

system: VEGFR2 autophosphorylation (pVEGFR2) in HUVEC cells (Homo sapiens (Human))
Sequence (P35968 20-1356): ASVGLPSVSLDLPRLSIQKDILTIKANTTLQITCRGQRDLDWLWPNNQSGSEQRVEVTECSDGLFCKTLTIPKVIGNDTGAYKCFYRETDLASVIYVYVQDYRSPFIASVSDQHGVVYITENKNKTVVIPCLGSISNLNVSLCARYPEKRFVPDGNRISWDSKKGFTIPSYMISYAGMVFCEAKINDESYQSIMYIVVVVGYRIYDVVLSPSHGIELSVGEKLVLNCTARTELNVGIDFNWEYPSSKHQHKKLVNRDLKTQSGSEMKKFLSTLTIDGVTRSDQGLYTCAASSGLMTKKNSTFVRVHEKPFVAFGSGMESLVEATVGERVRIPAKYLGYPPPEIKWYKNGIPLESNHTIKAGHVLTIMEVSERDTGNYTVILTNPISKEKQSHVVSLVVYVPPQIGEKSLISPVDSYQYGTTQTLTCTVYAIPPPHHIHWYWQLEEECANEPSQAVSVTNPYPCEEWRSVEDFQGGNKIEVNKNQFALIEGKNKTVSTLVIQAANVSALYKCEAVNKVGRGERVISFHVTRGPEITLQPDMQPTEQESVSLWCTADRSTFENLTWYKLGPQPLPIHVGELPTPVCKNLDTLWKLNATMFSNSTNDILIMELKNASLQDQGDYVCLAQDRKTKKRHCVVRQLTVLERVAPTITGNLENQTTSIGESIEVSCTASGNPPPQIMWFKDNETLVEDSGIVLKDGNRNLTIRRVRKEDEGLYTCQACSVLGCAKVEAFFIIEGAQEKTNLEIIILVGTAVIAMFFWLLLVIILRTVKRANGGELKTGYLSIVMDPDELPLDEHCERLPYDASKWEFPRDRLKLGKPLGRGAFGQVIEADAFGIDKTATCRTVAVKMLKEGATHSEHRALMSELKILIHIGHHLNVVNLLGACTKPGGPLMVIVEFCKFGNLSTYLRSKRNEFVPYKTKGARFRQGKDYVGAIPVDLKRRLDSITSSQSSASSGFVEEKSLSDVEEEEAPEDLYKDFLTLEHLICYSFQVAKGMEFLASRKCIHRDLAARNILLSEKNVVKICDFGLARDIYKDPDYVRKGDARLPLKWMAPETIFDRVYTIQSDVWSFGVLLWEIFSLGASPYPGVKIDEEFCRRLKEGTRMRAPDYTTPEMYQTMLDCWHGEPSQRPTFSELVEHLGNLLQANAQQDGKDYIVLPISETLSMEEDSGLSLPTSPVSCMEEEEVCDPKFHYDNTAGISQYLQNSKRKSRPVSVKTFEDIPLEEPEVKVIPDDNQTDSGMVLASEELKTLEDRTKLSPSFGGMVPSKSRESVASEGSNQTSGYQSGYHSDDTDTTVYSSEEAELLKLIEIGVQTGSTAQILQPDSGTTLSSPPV
method_summary: Inhibition of VEGF-induced VEGFR2 autophosphorylation in HUVEC cells (ELISA)
Format: cell-based
experimental_setup: 50 ng/ml human VEGF, compound 1 h
Listed here: items and their measured IC50.

Worked examples, 5 compounds total:
In [3]: df
Out[3]:
                        structure_as_smiles  meas_value
0  CCN(CC)Cc1ccc(/C=C/c2n[nH]c3cc(Sc4ccccc4C(=O)NC)ccc23)nc1      ≤ 1 nM
1  CNC(=O)c1cc(F)ccc1Sc1ccc2c(/C=C/c3ccc(OCCN4CCCC4)cn3)n[nH]c2c1      ≤ 1 nM
2  O=C(NC1CC1)c1cccc(F)c1Sc1ccc2c(/C=C/c3ccc(CN4CCCC4)cn3)n[nH]c2c1      ≤ 1 nM
3  CN1CCC(CCOc2ccc(/C=C/c3n[nH]c4cc(Sc5ccccc5C(=O)NC5CC5)ccc34)nc2)CC1      ≤ 1 nM
4  CCN(CC)CCc1ccc(/C=C/c2n[nH]c3cc(Sc4ccc(F)cc4C(=O)NC4CC4)ccc23)nc1   1 to 5 nM

Record summary for "CCNC(=O)c1cc(F)ccc1Sc1ccc2c(/C=C/c3ccc(CN4CCCC4)cn3)n[nH]c2c1" : reported IC50 = ≤ 1 nM

Sure, the documented IC50 for "CCNC(=O)c1cc(F)ccc1Sc1ccc2c(/C=C/c3cnn(CCCN4CCCC4)c3)n[nH]c2c1" is ≤ 1 nM

---

# Lookup of reported IC50 keyed by entry
system: FLT4 (VEGFR3) (Homo sapiens (Human), UniProt P35916)
Sequence (P35916 25-1363): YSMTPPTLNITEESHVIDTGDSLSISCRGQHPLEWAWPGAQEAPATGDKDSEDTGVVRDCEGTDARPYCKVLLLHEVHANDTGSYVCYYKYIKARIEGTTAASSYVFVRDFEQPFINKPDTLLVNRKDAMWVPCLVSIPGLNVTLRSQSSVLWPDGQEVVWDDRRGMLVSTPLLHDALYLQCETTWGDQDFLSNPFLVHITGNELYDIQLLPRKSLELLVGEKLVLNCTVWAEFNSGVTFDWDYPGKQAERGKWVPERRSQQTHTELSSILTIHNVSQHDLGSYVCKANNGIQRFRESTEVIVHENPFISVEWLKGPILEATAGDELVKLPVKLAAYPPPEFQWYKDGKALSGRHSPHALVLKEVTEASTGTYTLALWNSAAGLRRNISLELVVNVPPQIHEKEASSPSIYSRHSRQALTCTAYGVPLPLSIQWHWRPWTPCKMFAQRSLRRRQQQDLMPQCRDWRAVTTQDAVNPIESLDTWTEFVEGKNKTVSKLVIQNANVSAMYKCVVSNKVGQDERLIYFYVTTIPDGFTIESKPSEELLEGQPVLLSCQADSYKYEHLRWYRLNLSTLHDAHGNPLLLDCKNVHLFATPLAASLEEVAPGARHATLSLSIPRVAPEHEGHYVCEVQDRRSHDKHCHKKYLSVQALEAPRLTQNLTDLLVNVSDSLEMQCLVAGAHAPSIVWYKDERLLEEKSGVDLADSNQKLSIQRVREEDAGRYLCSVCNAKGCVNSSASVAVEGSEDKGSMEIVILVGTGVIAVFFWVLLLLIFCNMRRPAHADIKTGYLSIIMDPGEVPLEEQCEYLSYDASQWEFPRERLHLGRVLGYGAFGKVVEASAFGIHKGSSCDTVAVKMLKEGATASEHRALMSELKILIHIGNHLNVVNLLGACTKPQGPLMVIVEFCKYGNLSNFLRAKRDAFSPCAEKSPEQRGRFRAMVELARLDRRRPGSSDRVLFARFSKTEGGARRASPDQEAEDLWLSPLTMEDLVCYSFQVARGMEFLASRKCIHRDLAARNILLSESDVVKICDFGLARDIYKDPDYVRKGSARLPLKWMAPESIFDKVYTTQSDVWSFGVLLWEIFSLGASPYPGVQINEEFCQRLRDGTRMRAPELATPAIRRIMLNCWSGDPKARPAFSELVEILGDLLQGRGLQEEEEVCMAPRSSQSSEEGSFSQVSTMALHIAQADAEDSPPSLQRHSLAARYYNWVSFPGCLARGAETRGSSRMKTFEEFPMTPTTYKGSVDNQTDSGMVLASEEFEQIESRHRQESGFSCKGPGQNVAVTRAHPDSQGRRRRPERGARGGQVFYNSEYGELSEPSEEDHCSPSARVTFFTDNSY
method_summary: Kinase inhibition, Mobility Shift Assay (VEGFR3)
Type: biochemical

Please review the entries below; each comes with its answer.
                                   compound    meas_value
0  CNC(=O)c1ccccc1Sc1ccc2c(/C=C/c3ccc(OCCC4CCN(C)CC4)cn3)n[nH]c2c1 [Compound I-5]        ≤ 1 nM
1  CNC(=O)c1ccccc1Sc1ccc2c(C#Cc3cccc(OCCN4CCCC4)n3)n[nH]c2c1 [Compound I-24]  10 to 100 nM
2  CNC(=O)c1ccccc1Sc1ccc2c(/C=C/c3ccc(OCC4CCN(C)C4)cn3)n[nH]c2c1 (stereo not shown) [Compound I-1]        ≤ 1 nM

Field IC50 (FLT4 (VEGFR3) (Homo sapiens (Human), UniProt P35916)), entry CNC(=O)c1ccccc1Sc1ccc2c(/C=C/c3ccc(OCCN4CCN(C)CC4)cn3)n[nH]c2c1 [Compound I-4] : ≤ 1 nM

# IC50 measured on FLT4 (VEGFR3) (Homo sapiens (Human), UniProt P35916) for item O=C(NC1CC1)c1cc(F)ccc1Sc1ccc2c(/C=C/c3cc(OCCN4CCCC4)ccn3)n[nH]c2c1 [Compound I-118] = 10 to 100 nM

Bench note, FLT4 (VEGFR3) (Homo sapiens (Human), UniProt P35916): O=C(NC1CC1)c1ccccc1Sc1ccc2c(/C=C/c3cc(CCCN4CCCC4)ccn3)n[nH]c2c1 [Compound I-120] , IC50 reads 1 to 10 nM

Field IC50 (system: FLT4 (VEGFR3) (Homo sapiens (Human), UniProt P35916)) for entry CNC(=O)c1ccccc1Sc1ccc2c(/C=C/c3ccc(OCCN4CCCC4)cn3)n[nH]c2c1 [Compound I-6] = 1 to 10 nM
